pIC50: −log10 of the molar value.
Please consider the recorded pIC50 for Human Jak2 kinase domain (Homo sapiens (Human)) in what follows.

Which pIC50 value belongs to C[C@H](O)[C@@H](CO)NC(=O)c1cnn2ccc(N3CCC[C@@H]3c3cc(F)ccc3F)nc12 ?
< 6.00

Param item: C[C@@H](O)[C@H](CO)NC(=O)c1cnn2ccc(N3CCC[C@@H]3c3cc(F)ccc3F)nc12
< 6.00

Param item: C[C@H](O)[C@H](CO)NC(=O)c1cnn2ccc(N3CCC[C@@H]3c3cc(F)ccc3F)nc12
< 6.00

###

Assay system: TrkA (histidine-tagged recombinant human TrkA, cytoplasmic domain) (Homo sapiens (Human))
Sequence (P04629 440-796): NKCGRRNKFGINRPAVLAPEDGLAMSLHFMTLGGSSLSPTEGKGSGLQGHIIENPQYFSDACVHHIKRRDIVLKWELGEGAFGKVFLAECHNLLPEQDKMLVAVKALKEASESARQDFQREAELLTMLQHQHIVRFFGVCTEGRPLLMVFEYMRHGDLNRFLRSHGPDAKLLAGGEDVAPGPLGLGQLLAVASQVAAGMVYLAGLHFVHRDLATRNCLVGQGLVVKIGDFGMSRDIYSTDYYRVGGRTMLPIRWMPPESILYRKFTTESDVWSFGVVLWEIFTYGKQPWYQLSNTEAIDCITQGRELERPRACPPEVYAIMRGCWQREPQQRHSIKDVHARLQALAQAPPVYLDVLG
Assay remarks: TrkA ELISA assay
Condition details: Table 1, 500 μM ATP, read-out: TrkA Enzyme IC50
Description: An enzyme-linked immunosorbant assay (ELISA) was used to assess TrkA kinase activity in the presence of inhibitors. […] The phosphorylated reaction product was detected using 0.2 μg/mL of a phosphotyrosine specific monoclonal antibody (clone PY20) conjugated to horseradish peroxidase in conjunction with the TMB Peroxidase Substrate System (KPL). After the addition of 1M phosphoric acid, the chromogenic substrate color intensity was quantitated via absorbance at 450 nm.
Measurement type: IC50 (nM)
Response body: numeric value in nM, unit text excluded.

Which IC50 value belongs to O=C(NCCN1CCC(O)CC1)c1cnn2ccc(N3CCC[C@@H]3c3cc(F)ccc3F)nc12 ?
11.6

Param item: C[C@@H](O)[C@H](CO)NC(=O)c1cnn2ccc(N3CCC[C@@H]3c3cc(F)ccc3F)nc12
16.3

Param item: C[C@H](O)[C@@H](CO)NC(=O)c1cnn2ccc(N3CCC[C@@H]3c3cc(F)ccc3F)nc12
27.2

Param item: C[C@H](O)[C@H](CO)NC(=O)c1cnn2ccc(N3CCC[C@@H]3c3cc(F)ccc3F)nc12
12.2
